assay: self-splicing fitness, log relative to wild type (ln ratio); higher = more splicing; Tetrahymena group I intron in knt gene, E. coli kanamycin selection, DiMSum; sequences stand for … in CUCUCU…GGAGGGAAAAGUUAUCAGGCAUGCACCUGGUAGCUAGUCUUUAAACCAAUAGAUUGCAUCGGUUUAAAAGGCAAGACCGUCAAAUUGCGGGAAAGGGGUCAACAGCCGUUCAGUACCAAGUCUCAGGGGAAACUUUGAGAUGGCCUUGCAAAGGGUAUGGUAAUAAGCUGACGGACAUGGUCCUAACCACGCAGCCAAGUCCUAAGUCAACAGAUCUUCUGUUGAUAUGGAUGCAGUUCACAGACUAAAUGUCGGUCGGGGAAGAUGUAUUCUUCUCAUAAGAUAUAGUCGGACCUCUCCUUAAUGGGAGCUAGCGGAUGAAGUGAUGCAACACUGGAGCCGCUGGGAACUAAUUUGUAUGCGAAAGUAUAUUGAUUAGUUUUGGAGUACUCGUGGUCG; details: 30 °C;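 also: selection with 25 µg/mL kanamycin versus none on LB agar overnight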
Label satisfied for high-side self-splicing fitness (ln) (at or above -1) and not satisfied for low-side self-splicing fitness (ln) (below it).

           residue_codes            cat
 0  GCCGAGCAAUAUUACGUGUC  not satisfied
 1  GUUCAGCAAUAUUACGUCCG      satisfied
 2  CCGCAGCAAUAUUACGGCGU  not satisfied
 3  UGUAAGCAAUAUUACGCAGG  not satisfied
 4  UGUCAGCAAUAUUACGAGGC  not satisfied
 5  AGCAAGCAAUAUUACGUCUA      satisfied
 6  CAUAAGCAAUAUUACGGGCA  not satisfied
 7  GGAUAGCAAUAUUACGAGGA  not satisfied
 8  AACCAGCAAUAUUACGCAAA      satisfied
 9  ACGGAGCAAUAUUACGUCCG  not satisfied
10  ACAGAGCAAUAUUACGAUAC  not satisfied
11  GAGGAGCAAUAUUACGUAGC      satisfied
12  CUCCAGCAAUAUUACGUGAU  not satisfied
13  UGACAGCAAUAUUACGUUGC  not satisfied
14  CCCGAGCAAUAUUACGUUAC  not satisfied
15  AGCGAGCAAUAUUACGCCAC  not satisfied
16  UGUUAGCAAUAUUACGUUGU  not satisfied
17  CGCCAGCAAUAUUACGGAGG  not satisfied
18  GACCAGCAAUAUUACGGGUA      satisfied
19  UACGAGCAAUAUUACGCGAU  not satisfied
20  CGUAAGCAAUAUUACGAUCU  not satisfied
21  CGCCAGCAAUAUUACGCACA  not satisfied
22  UACAAGCAAUAUUACGAUCU      satisfied
23  CCUAAGCAAUAUUACGUAAG      satisfied
24  GGAGAGCAAUAUUACGGUGG  not satisfied
25  AGGAAGCAAUAUUACGACCC      satisfied
26  ACCAAGCAAUAUUACGCCCC  not satisfied
27  GAUGAGCAAUAUUACGGAUC  not satisfied
28  ACUGAGCAAUAUUACGCGUG  not satisfied
29  UGGGAGCAAUAUUACGUUUC  not satisfied
30  GUUAAGCAAUAUUACGUGUA  not satisfied
31  AAGGAGCAAUAUUACGUGAU  not satisfied
32  ACCUAGCAAUAUUACGCCGA  not satisfied
33  GUACAGCAAUAUUACGACCU      satisfied
34  AGGGAGCAAUAUUACGACAU  not satisfied
35  ACAUAGCAAUAUUACGAGCC  not satisfied
36  AGAAAGCAAUAUUACGUGCA      satisfied
37  CGGAAGCAAUAUUACGUAUU  not satisfied
38  AUAGAGCAAUAUUACGCGGG  not satisfied
39  AAUCAGCAAUAUUACGGGAC  not satisfied
40  ACAAAGCAAUAUUACGCCCU      satisfied
41  CCUCAGCAAUAUUACGGUAG      satisfied
42  AGGCAGCAAUAUUACGAAAC  not satisfied
43  GUUCAGCAAUAUUACGAAGG  not satisfied
44  GCAGAGCAAUAUUACGUACU  not satisfied
45  UCAGAGCAAUAUUACGGGGG  not satisfied
46  CACUAGCAAUAUUACGGGGA  not satisfied
47  AGACAGCAAUAUUACGUAAU  not satisfied
48  ACGGAGCAAUAUUACGUAGU  not satisfied
49  AAUCAGCAAUAUUACGACGG  not satisfied
50  ACGAAGCAAUAUUACGGCUA      satisfied
51  GCGGAGCAAUAUUACGACUU      satisfied
52  CCAGAGCAAUAUUACGCUGU  not satisfied
53  UGGCAGCAAUAUUACGAUUA      satisfied
54  AUCGAGCAAUAUUACGUAGA  not satisfied
55  CUCAAGCAAUAUUACGCUAC  not satisfied
56  AUGGAGCAAUAUUACGCAUG  not satisfied
57  AGGAAGCAAUAUUACGCAUU  not satisfied
58  CACGAGCAAUAUUACGCAGU  not satisfied
59  AAUGAGCAAUAUUACGUCUU      satisfied
60  CGCAAGCAAUAUUACGGUGG      satisfied
